These data points were gathered from patent US20100286219A1.

- experimental target: human DβH (Homo sapiens)
- Construct: endogenous in cells; host or cells: SK-N-SH cells
- Sequence (P09172 whole entry): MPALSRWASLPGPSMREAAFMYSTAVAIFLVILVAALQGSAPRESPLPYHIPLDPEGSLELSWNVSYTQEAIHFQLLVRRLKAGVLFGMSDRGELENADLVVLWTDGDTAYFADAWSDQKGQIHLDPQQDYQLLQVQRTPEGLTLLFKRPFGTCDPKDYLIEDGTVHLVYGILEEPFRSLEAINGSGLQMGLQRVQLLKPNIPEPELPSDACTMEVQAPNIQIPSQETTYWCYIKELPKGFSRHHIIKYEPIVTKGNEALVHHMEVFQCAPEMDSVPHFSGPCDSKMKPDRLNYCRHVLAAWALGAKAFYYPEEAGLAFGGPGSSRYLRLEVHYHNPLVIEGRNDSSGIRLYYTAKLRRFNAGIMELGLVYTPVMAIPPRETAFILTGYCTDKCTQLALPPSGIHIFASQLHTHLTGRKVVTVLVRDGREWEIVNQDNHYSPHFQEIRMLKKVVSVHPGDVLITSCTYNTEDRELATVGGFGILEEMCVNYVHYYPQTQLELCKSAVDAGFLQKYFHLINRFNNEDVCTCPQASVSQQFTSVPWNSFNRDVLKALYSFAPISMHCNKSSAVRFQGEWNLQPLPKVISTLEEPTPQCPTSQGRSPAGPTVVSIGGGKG
- experiment summary: DβH activity in SK-N-SH cells (β-hydroxylation of dopamine to noradrenaline)
- Type: cell-based
- assay context: as listed in Table 1, 5 μM
property: inhibition of DβH activity (in words)

Cl.NCCc1c[nH]c(=S)n1[C@H]1COc2ccc(F)cc2C1 [Compound 7]    markedly inhibit
Cl.NCCc1c[nH]c(=S)n1[C@H]1COc2c(cc(F)c(F)c2F)C1 [Compound 10]    markedly inhibit
Cl.Oc1ccc2c(c1)C[C@@H](n1c(CCNCc3ccccc3)c[nH]c1=S)CO2 [Compound 26]    markedly inhibit
Cl.NCc1c[nH]c(=S)n1[C@H]1COc2ccccc2C1 [Compound 24]    markedly inhibit
Cl.NCCc1c[nH]c(=S)n1[C@H]1COc2c(F)cccc2C1 [Compound 6]    markedly inhibit

Query: What is its inhibition of DβH activity (in words) for human DβH (Homo sapiens)? Entry: CNCCc1c[nH]c(=S)n1[C@H]1COc2ccccc2C1.Cl [Compound 29]
Reply: markedly inhibit

Query: Would you mind doing Cl.NCCCc1c[nH]c(=S)n1[C@H]1CCc2c(F)cc(F)cc2C1 [Compound 5] as well?
Reply: markedly inhibit

Query: Would you mind doing Cl.NCCc1c[nH]c(=S)n1[C@H]1COc2ccc(O)cc2C1 [Compound 16] as well?
Reply: markedly inhibit

Query: Would you mind doing COc1cccc2c1OC[C@H](n1c(CCN)c[nH]c1=S)C2.Cl [Compound 19] as well?
Reply: markedly inhibit
